- target.of.assay: Aspartate--tRNA(Asp/Asn) ligase (Mycobacterium tuberculosis (strain ATCC 25618 / H37Rv)) (UniProt P9WFW3)
- Sequence (P9WFW3 whole entry): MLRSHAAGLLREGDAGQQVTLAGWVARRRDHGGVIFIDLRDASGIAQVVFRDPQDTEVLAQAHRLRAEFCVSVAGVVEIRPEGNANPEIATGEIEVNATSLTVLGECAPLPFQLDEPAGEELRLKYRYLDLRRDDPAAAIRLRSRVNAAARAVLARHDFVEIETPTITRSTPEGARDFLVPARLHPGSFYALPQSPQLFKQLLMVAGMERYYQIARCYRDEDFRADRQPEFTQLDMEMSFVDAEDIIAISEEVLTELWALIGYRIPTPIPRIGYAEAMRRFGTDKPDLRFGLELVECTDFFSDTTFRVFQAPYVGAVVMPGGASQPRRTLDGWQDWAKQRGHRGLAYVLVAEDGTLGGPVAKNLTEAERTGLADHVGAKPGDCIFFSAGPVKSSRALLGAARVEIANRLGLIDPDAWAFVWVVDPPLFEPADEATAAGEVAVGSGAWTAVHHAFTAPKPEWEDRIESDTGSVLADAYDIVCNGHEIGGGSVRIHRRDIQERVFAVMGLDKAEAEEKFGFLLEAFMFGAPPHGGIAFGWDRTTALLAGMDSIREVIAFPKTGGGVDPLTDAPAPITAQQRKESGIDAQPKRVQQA
- protocol.description: Assay for Asp RNA synthetase-1 from Mycobacterium tuberculosis
- Type: functional
- Set-up: scale not given: in the data most compounds retested in dose-response had high values
- recorded.conditions: 30 µM
assay.metric: Percent Effect

compound	assay.metric	endpoint.result
Cc1nnc(NC(=O)NCc2cc(F)cc(F)c2)s1	Percent Effect	4.55%
Cc1cc(CNCc2c(C)nn(C)c2N2CCOCC2)no1	Percent Effect	-2.57%
CCCc1n[nH]c(C2CN(C(=O)c3cc(F)ccc3OC)CCO2)n1 (stereo not given)	Percent Effect	0%
Cc1noc(C)c1CNC(=O)c1ccc(NC2CC2)nc1	Percent Effect	3.65%
c1ccc(-c2ncc(CNC3CCc4ncnn4C3)cn2)cc1 (stereo not given)	Percent Effect	-0.626%
O=C(NCC1CCCO1)c1c(-n2cnnn2)sc2c1CCC2 (stereo not given)	Percent Effect	1.11%
Cc1cc(C(=O)N2C[C@@H]3COC[C@]3(c3nnc(C4CC4)o3)C2)on1	Percent Effect	2.94%
Cc1n[nH]c(=O)c2c(NC(=O)CN3CCOC(C)C3)oc(C)c12 (stereo not given)	Percent Effect	-3.61%
Cc1noc(C2CCCN(C(=O)c3ccc(Br)cc3F)C2)n1 (stereo not given)	Percent Effect	-4.41%
Cc1ccc(NS(=O)(=O)CC2=NC(=O)n3cccc3C2=O)cc1	Percent Effect	-1.02%
COc1ccccc1CCN(C)C(=O)NC(C)c1nncn1C (stereo not given)	Percent Effect	-4.13%
CCc1nc(CC(=O)N2CCCC2CN2CCCC2)cs1 (stereo not given)	Percent Effect	-3.69%
CC(C)COCC(NC(=O)c1ccccn1)c1ccco1 (stereo not given)	Percent Effect	-1.2%
Cc1cc2nc(SCC(=O)N3CCCC3)n(C(C)C)c(=O)c2[nH]1	Percent Effect	0.509%
Cc1ccc(CN2CC[C@H]3[C@@H]2CCC(=O)N3CCN2CCCC2)s1	Percent Effect	2.78%
Cc1ccc(-c2nc(CCNC(=O)NC3CCN(C)CC3)co2)cc1	Percent Effect	-3.19%
COc1cc(N2C[C@H]3OCC[C@H]3[C@H](C(=O)NC3CC3)C2)ncn1	Percent Effect	3.81%
Cc1nc(C)n(CC2CN(c3ccc(C#N)cn3)CCO2)n1 (stereo not given)	Percent Effect	2.39%
COc1c(CNC(c2ccc(F)cc2)c2nccn2C)c(C)nn1C (stereo not given)	Percent Effect	-6.01%
CN(Cc1ccsc1)C(=O)CN1CCOC(Cn2cccn2)C1 (stereo not given)	Percent Effect	0.463%
Cc1cc(NC(=O)C(c2cccc(F)c2)N2CCOCC2)ccn1 (stereo not given)	Percent Effect	5%
CS(=O)(=O)NCCCN1CCCCC1c1cc2ccccc2[nH]1 (stereo not given)	Percent Effect	-1.17%
CSc1sc(NC(=O)Cc2c(C)nc(C)[nH]c2=O)nc1C	Percent Effect	-2.08%
COc1cccc(S(=O)(=O)NC(=O)COC2CCCC2)c1	Percent Effect	2.03%
CN(Cc1ccc(F)cc1)CC1(O)CCN(C(=O)c2cccn2C)C1 (stereo not given)	Percent Effect	-4.54%
Cc1nnc(N2CCCC3(CN(Cc4ccc(C)s4)CCO3)C2)o1 (stereo not given)	Percent Effect	0.479%
CC(=O)N1CC[C@H]2OCC[C@@]2(C(=O)NCc2ccco2)C1	Percent Effect	0.379%
Cc1noc2ncc(C(=O)N3CCCC3c3cnn(C)c3)cc12 (stereo not given)	Percent Effect	3.4%
COc1ccc(NC(=O)N2CCCC2c2ccco2)cc1OC (stereo not given)	Percent Effect	1.24%
CCC(C)(C)NC(=O)CN(C)C(c1cccc(F)c1)c1ccccn1 (stereo not given)	Percent Effect	-1.18%
